# TEST PROTOCOL: mn = molality of the nth substance listed, in mol/kg
# TEST SETTINGS: 298.15 K; 75 kPa; Liquid; Frequency=3 MHz; Single path-length method; m1 = 1.132
MEASURED PROPERTY: speed of sound (m/s)

So what's the measured speed of sound for this one? NCCCC(=O)O [4-aminobutanoic acid] + O
1582.3

Follow-up entry: NCC(=O)O [2-aminoacetic acid] + O
1553.3

And the next one, NCCC(=O)O [3-aminopropanoic acid] + O ?
1564.5

Repeat with NCCCCCC(=O)O [6-aminohexanoic acid] + O
1615.3

Cited source for all entries: the NIST ThermoML archive (doi:10.1021/acs.jced.8b00236)
